Tested on: Monochoria vaginalis
assay-notes: Paddy herbicidal activity test
Assay type: in vivo
measurement-setup: 5g a.i./10a; irrigated paddy pot, 30 days
Excerpt: Rice paddy soil was filled into a 1/10000 are pot followed by the addition of suitable amounts of water and chemical fertilizer, kneading, seeding with Echinochloa crus-galli, Monochoria vaginalis and Scirpus juncoides and maintaining in an irrigated state at a water depth of 3 cm. […]
measured-parameter: Monochoria vaginalis herbicidal efficacy (growth inhibition level)

Entry under test: CC=CCNc1c([N+](=O)[O-])cnn1-c1nn2c(c1Br)CCCC2 (mixture of isomers) [Compound 57] . Its Monochoria vaginalis herbicidal efficacy (growth inhibition level) was 9 (9: 90% to less than 100%)

Entry under test: N#Cc1cnn(-c2nn3c(c2Cl)CCCC3)c1NCCC(F)=C(F)F [Compound 6] . Its Monochoria vaginalis herbicidal efficacy (growth inhibition level) was 8 (8: 80% to less than 90%)

Entry under test: C=C(C)CNc1c(C#N)cnn1-c1nn2c(c1Cl)CCCC2 [Compound 1] . Its Monochoria vaginalis herbicidal efficacy (growth inhibition level) was 9 (9: 90% to less than 100%)

Entry under test: CC=CCCN(C(=O)C(F)(F)F)c1c(C#N)cnn1-c1nn2c(c1Cl)CCCC2 (mixture of isomers) [Compound 26] . Its Monochoria vaginalis herbicidal efficacy (growth inhibition level) was 9 (9: 90% to less than 100%)

Entry under test: C=CCN(C(=O)C(F)(F)F)c1c([N+](=O)[O-])cnn1-c1nn2c(c1Cl)CCCC2 [Compound 36] . Its Monochoria vaginalis herbicidal efficacy (growth inhibition level) was 9 (9: 90% to less than 100%)

Entry under test: CC(C)=CCNc1c(C#N)cnn1-c1nn2c(c1Br)CCCC2 [Compound 48] . Its Monochoria vaginalis herbicidal efficacy (growth inhibition level) was 10 (10: 100%)

Entry under test: CC=CCN(C(=O)C(F)(F)F)c1c([N+](=O)[O-])cnn1-c1nn2c(c1Cl)CCCC2 (mixture of isomers) [Compound 40] . Its Monochoria vaginalis herbicidal efficacy (growth inhibition level) was 8 (8: 80% to less than 90%)

Entry under test: C=CCN(C(=O)C(F)(F)C(F)(F)F)c1c(C#N)cnn1-c1nn2c(c1Cl)CCCC2 [Compound 28] . Its Monochoria vaginalis herbicidal efficacy (growth inhibition level) was 10 (10: 100%)

====

System: Rice plants
assay-notes: Paddy herbicidal activity test, phytotoxicity to transplanted rice
Assay type: in vivo
measurement-setup: 1g a.i./10a; rice transplanted at 2.0 leaf stage, 30 days
For each record, write down the corresponding Rice plants phytotoxicity (growth inhibition level).

Entry under test: C#CCNc1c(C#N)cnn1-c1nn2c(c1Cl)CCCC2 [Control agent 4.85, 4.156, reference compound] . Its Rice plants phytotoxicity (growth inhibition level) was 2 (2: 20% to less than 30%)

Entry under test: C=CCNc1c(C#N)cnn1-c1nn2c(c1Cl)CCCC2 [Control agent 4.59, reference compound] . Its Rice plants phytotoxicity (growth inhibition level) was 1 (1: 10% to less than 20%)

====

For each record, write down the corresponding Chenopodium album herbicidal efficacy (growth inhibition level).
Tested on: Chenopodium album
assay-notes: Farming soil treatment test
Format: in vivo
measurement-setup: 10g a.i./10a; soil surface spray prior to weed growth, 30 days

Entry under test: C=CCN(CC)c1c(C#N)cnn1-c1nn2c(c1Cl)CCCC2 [Control agent 4.75, reference compound] . Its Chenopodium album herbicidal efficacy (growth inhibition level) was 6 (6: 60% to less than 70%)

Entry under test: CC=CCN(C(=O)C(F)(F)F)c1c(C#N)cnn1-c1nn2c(c1Cl)CCCC2 (mixture of isomers) . Its Chenopodium album herbicidal efficacy (growth inhibition level) was 10 (10: 100%)

Entry under test: N#Cc1cnn(-c2nn3c(c2Cl)CCCC3)c1N(C/C=C\Cl)C(=O)C(F)(F)F . Its Chenopodium album herbicidal efficacy (growth inhibition level) was 10 (10: 100%)

Entry under test: CC=CCNc1c(C#N)cnn1-c1nn2c(c1Cl)CCCC2 (mixture of isomers) . Its Chenopodium album herbicidal efficacy (growth inhibition level) was 10 (10: 100%)

Entry under test: C#CCNc1c(C#N)cnn1-c1nn2c(c1Cl)CCCC2 [Control agent 4.85, 4.156, reference compound] . Its Chenopodium album herbicidal efficacy (growth inhibition level) was 5 (5: 50% to less than 60%)

Entry under test: C#CCN(C(=O)C(F)(F)F)c1c(C#N)cnn1-c1nn2c(c1Cl)CCCC2 [Control agent 4.239, reference compound] . Its Chenopodium album herbicidal efficacy (growth inhibition level) was 3 (3: 30% to less than 40%)

Entry under test: C=C(Cl)CN(C(=O)C(F)(F)F)c1c(C#N)cnn1-c1nn2c(c1Cl)CCCC2 . Its Chenopodium album herbicidal efficacy (growth inhibition level) was 10 (10: 100%)

Entry under test: C=CCNc1c(C#N)cnn1-c1nn2c(c1Cl)CCCC2 [Control agent 4.59, reference compound] . Its Chenopodium album herbicidal efficacy (growth inhibition level) was 6 (6: 60% to less than 70%)

Entry under test: C=C(Cl)CNc1c([N+](=O)[O-])cnn1-c1nn2c(c1Cl)CCCC2 . Its Chenopodium album herbicidal efficacy (growth inhibition level) was 10 (10: 100%)

====

Tested on: Amaranthus retroflexus
assay-notes: Weed foliar treatment test
Type: in vivo
measurement-setup: 10g a.i./10a; foliar spray, 3 weeks
For each record, write down the corresponding Amaranthus retroflexus herbicidal efficacy (growth inhibition level).

// returns Amaranthus retroflexus herbicidal efficacy (growth inhibition level) for N#Cc1cnn(-c2nn3c(c2Cl)CCCC3)c1N(C/C=C\Cl)C(=O)C(F)(F)F [Compound 21] with Amaranthus retroflexus; value = 10 (10: 100%)

// returns Amaranthus retroflexus herbicidal efficacy (growth inhibition level) for CC=CCNc1c(C#N)cnn1-c1nn2c(c1Cl)CCCC2 (mixture of isomers) [Compound 12] with Amaranthus retroflexus; value = 10 (10: 100%)

// returns Amaranthus retroflexus herbicidal efficacy (growth inhibition level) for O=[N+]([O-])c1cnn(-c2nn3c(c2Cl)CCCC3)c1NC/C=C\Cl [Compound 32] with Amaranthus retroflexus; value = 10 (10: 100%)

// returns Amaranthus retroflexus herbicidal efficacy (growth inhibition level) for C=C(Cl)CNc1c([N+](=O)[O-])cnn1-c1nn2c(c1Cl)CCCC2 [Compound 30] with Amaranthus retroflexus; value = 10 (10: 100%)

// returns Amaranthus retroflexus herbicidal efficacy (growth inhibition level) for C#CCN(C(=O)C(F)(F)F)c1c(C#N)cnn1-c1nn2c(c1Cl)CCCC2 [Control agent 4.239, reference compound] with Amaranthus retroflexus; value = 6 (6: 60% to less than 70%)

// returns Amaranthus retroflexus herbicidal efficacy (growth inhibition level) for C#CCNc1c(C#N)cnn1-c1nn2c(c1Cl)CCCC2 [Control agent 4.85, 4.156, reference compound] with Amaranthus retroflexus; value = 6 (6: 60% to less than 70%)

// returns Amaranthus retroflexus herbicidal efficacy (growth inhibition level) for C=CCN(CC)c1c(C#N)cnn1-c1nn2c(c1Cl)CCCC2 [Control agent 4.75, reference compound] with Amaranthus retroflexus; value = 7 (7: 70% to less than 80%)

// returns Amaranthus retroflexus herbicidal efficacy (growth inhibition level) for CC=CCN(C(=O)C(F)(F)F)c1c(C#N)cnn1-c1nn2c(c1Cl)CCCC2 (mixture of isomers) [Compound 24] with Amaranthus retroflexus; value = 10 (10: 100%)

// returns Amaranthus retroflexus herbicidal efficacy (growth inhibition level) for C=C(Cl)CN(C(=O)C(F)(F)F)c1c(C#N)cnn1-c1nn2c(c1Cl)CCCC2 [Compound 3] with Amaranthus retroflexus; value = 10 (10: 100%)

// returns Amaranthus retroflexus herbicidal efficacy (growth inhibition level) for C=CCNc1c(C#N)cnn1-c1nn2c(c1Cl)CCCC2 [Control agent 4.59, reference compound] with Amaranthus retroflexus; value = 7 (7: 70% to less than 80%)

====

Test system: Echinochloa crus-galli
assay-notes: Paddy herbicidal activity test
Type: in vivo
measurement-setup: 1g a.i./10a; irrigated paddy pot, treated at 3.5 leaf stage of Echinochloa crus-galli, 30 days
measured-parameter: Echinochloa crus-galli herbicidal efficacy (growth inhibition level)

Entry under test: N#Cc1cnn(-c2nn3c(c2Cl)CCCC3)c1NCC(Cl)=CCl (mixture of isomers) . Its Echinochloa crus-galli herbicidal efficacy (growth inhibition level) was 8 (8: 80% to less than 90%)

Entry under test: C=C(Cl)CNc1c([N+](=O)[O-])cnn1-c1nn2c(c1Cl)CCCC2 . Its Echinochloa crus-galli herbicidal efficacy (growth inhibition level) was 9 (9: 90% to less than 100%)

Entry under test: CC=CCNc1c(C#N)cnn1-c1nn2c(c1Br)CCCC2 (mixture of isomers) . Its Echinochloa crus-galli herbicidal efficacy (growth inhibition level) was 9 (9: 90% to less than 100%)

Entry under test: N#Cc1cnn(-c2nn3c(c2Br)CCCC3)c1NC/C=C\Cl . Its Echinochloa crus-galli herbicidal efficacy (growth inhibition level) was 9 (9: 90% to less than 100%)

Entry under test: C=C(Cl)CN(C(=O)C(F)(F)F)c1c(C#N)cnn1-c1nn2c(c1Br)CCCC2 . Its Echinochloa crus-galli herbicidal efficacy (growth inhibition level) was 9 (9: 90% to less than 100%)

Entry under test: CC=CCCN(C(=O)C(F)(F)F)c1c(C#N)cnn1-c1nn2c(c1Cl)CCCC2 (mixture of isomers) . Its Echinochloa crus-galli herbicidal efficacy (growth inhibition level) was 9 (9: 90% to less than 100%)

Entry under test: C=CCN(CC)c1c(C#N)cnn1-c1nn2c(c1Cl)CCCC2 [Control agent 4.75, reference compound] . Its Echinochloa crus-galli herbicidal efficacy (growth inhibition level) was 3 (3: 30% to less than 40%)

Entry under test: C=CCN(C(=O)C(F)(F)F)c1c([N+](=O)[O-])cnn1-c1nn2c(c1Cl)CCCC2 . Its Echinochloa crus-galli herbicidal efficacy (growth inhibition level) was 9 (9: 90% to less than 100%)

Entry under test: C=C(C)CNc1c(C#N)cnn1-c1nn2c(c1Cl)CCCC2 . Its Echinochloa crus-galli herbicidal efficacy (growth inhibition level) was 8 (8: 80% to less than 90%)

Entry under test: N#Cc1cnn(-c2nn3c(c2Br)CCCC3)c1N(C/C=C\Cl)C(=O)C(F)(F)F . Its Echinochloa crus-galli herbicidal efficacy (growth inhibition level) was 9 (9: 90% to less than 100%)

Entry under test: C=C(C)CNc1c([N+](=O)[O-])cnn1-c1nn2c(c1Cl)CCCC2 . Its Echinochloa crus-galli herbicidal efficacy (growth inhibition level) was 9 (9: 90% to less than 100%)

Entry under test: N#Cc1cnn(-c2nn3c(c2Cl)CCCC3)c1N(CC(Cl)=CCl)C(=O)C(F)(F)F (mixture of isomers) . Its Echinochloa crus-galli herbicidal efficacy (growth inhibition level) was 8 (8: 80% to less than 90%)

Entry under test: C#CCN(C(=O)C(F)(F)F)c1c(C#N)cnn1-c1nn2c(c1Cl)CCCC2 [Control agent 4.239, reference compound] . Its Echinochloa crus-galli herbicidal efficacy (growth inhibition level) was 3 (3: 30% to less than 40%)

Entry under test: C=C(Cl)CN(C(=O)C(F)(F)F)c1c(C#N)cnn1-c1nn2c(c1Cl)CCCC2 . Its Echinochloa crus-galli herbicidal efficacy (growth inhibition level) was 9 (9: 90% to less than 100%)

Entry under test: C=CCCN(C(=O)C(F)(F)F)c1c(C#N)cnn1-c1nn2c(c1Br)CCCC2 . Its Echinochloa crus-galli herbicidal efficacy (growth inhibition level) was 9 (9: 90% to less than 100%)

Entry under test: C=CCCNc1c(C#N)cnn1-c1nn2c(c1Cl)CCCC2 . Its Echinochloa crus-galli herbicidal efficacy (growth inhibition level) was 9 (9: 90% to less than 100%)

Entry under test: CC(C)=CCN(C(=O)C(F)(F)F)c1c(C#N)cnn1-c1nn2c(c1Cl)CCCC2 . Its Echinochloa crus-galli herbicidal efficacy (growth inhibition level) was 9 (9: 90% to less than 100%)

Entry under test: CC=CCNc1c([N+](=O)[O-])cnn1-c1nn2c(c1Cl)CCCC2 (mixture of isomers) . Its Echinochloa crus-galli herbicidal efficacy (growth inhibition level) was 9 (9: 90% to less than 100%)

Entry under test: N#Cc1cnn(-c2nn3c(c2Cl)CCCC3)c1N(CCC(F)=C(F)F)C(=O)C(F)(F)F . Its Echinochloa crus-galli herbicidal efficacy (growth inhibition level) was 9 (9: 90% to less than 100%)

Entry under test: C=CCCNc1c(C#N)cnn1-c1nn2c(c1Br)CCCC2 . Its Echinochloa crus-galli herbicidal efficacy (growth inhibition level) was 8 (8: 80% to less than 90%)

Entry under test: N#Cc1cnn(-c2nn3c(c2Cl)CCCC3)c1N(C/C=C\Cl)C(=O)C(F)(F)F . Its Echinochloa crus-galli herbicidal efficacy (growth inhibition level) was 9 (9: 90% to less than 100%)

Entry under test: N#Cc1cnn(-c2nn3c(c2Cl)CCCC3)c1NCCC(F)=C(F)F . Its Echinochloa crus-galli herbicidal efficacy (growth inhibition level) was 9 (9: 90% to less than 100%)

Entry under test: C=CCN(C(=O)C(F)(F)F)c1c(C#N)cnn1-c1nn2c(c1Br)CCCC2 . Its Echinochloa crus-galli herbicidal efficacy (growth inhibition level) was 8 (8: 80% to less than 90%)

Entry under test: O=[N+]([O-])c1cnn(-c2nn3c(c2Cl)CCCC3)c1NC/C=C\Cl . Its Echinochloa crus-galli herbicidal efficacy (growth inhibition level) was 8 (8: 80% to less than 90%)

Entry under test: CC=CCN(C(=O)C(F)(F)F)c1c(C#N)cnn1-c1nn2c(c1Cl)CCCC2 (mixture of isomers) . Its Echinochloa crus-galli herbicidal efficacy (growth inhibition level) was 9 (9: 90% to less than 100%)

Entry under test: C=CCNc1c(C#N)cnn1-c1nn2c(c1Cl)CCCC2 [Control agent 4.59, reference compound] . Its Echinochloa crus-galli herbicidal efficacy (growth inhibition level) was 2 (2: 20% to less than 30%)

Entry under test: CC=CCNc1c(C#N)cnn1-c1nn2c(c1Cl)CCCC2 (mixture of isomers) . Its Echinochloa crus-galli herbicidal efficacy (growth inhibition level) was 9 (9: 90% to less than 100%)

Entry under test: C=CCCN(C(=O)C(F)(F)F)c1c(C#N)cnn1-c1nn2c(c1Cl)CCCC2 . Its Echinochloa crus-galli herbicidal efficacy (growth inhibition level) was 9 (9: 90% to less than 100%)

Entry under test: N#Cc1cnn(-c2nn3c(c2Cl)CCCC3)c1NC/C=C\Cl . Its Echinochloa crus-galli herbicidal efficacy (growth inhibition level) was 9 (9: 90% to less than 100%)

Entry under test: CC(C)=CCNc1c(C#N)cnn1-c1nn2c(c1Cl)CCCC2 . Its Echinochloa crus-galli herbicidal efficacy (growth inhibition level) was 9 (9: 90% to less than 100%)

Entry under test: C=CCN(C(=O)C(F)(F)C(F)(F)F)c1c(C#N)cnn1-c1nn2c(c1Cl)CCCC2 . Its Echinochloa crus-galli herbicidal efficacy (growth inhibition level) was 9 (9: 90% to less than 100%)

Entry under test: CC(C)=CCNc1c(C#N)cnn1-c1nn2c(c1Br)CCCC2 . Its Echinochloa crus-galli herbicidal efficacy (growth inhibition level) was 8 (8: 80% to less than 90%)

Entry under test: CC=CCN(C(=O)C(F)(F)F)c1c([N+](=O)[O-])cnn1-c1nn2c(c1Cl)CCCC2 (mixture of isomers) . Its Echinochloa crus-galli herbicidal efficacy (growth inhibition level) was 8 (8: 80% to less than 90%)
